- target system: human (hACC2) (Homo sapiens, UniProt O00763)
- Sequence (O00763 whole entry): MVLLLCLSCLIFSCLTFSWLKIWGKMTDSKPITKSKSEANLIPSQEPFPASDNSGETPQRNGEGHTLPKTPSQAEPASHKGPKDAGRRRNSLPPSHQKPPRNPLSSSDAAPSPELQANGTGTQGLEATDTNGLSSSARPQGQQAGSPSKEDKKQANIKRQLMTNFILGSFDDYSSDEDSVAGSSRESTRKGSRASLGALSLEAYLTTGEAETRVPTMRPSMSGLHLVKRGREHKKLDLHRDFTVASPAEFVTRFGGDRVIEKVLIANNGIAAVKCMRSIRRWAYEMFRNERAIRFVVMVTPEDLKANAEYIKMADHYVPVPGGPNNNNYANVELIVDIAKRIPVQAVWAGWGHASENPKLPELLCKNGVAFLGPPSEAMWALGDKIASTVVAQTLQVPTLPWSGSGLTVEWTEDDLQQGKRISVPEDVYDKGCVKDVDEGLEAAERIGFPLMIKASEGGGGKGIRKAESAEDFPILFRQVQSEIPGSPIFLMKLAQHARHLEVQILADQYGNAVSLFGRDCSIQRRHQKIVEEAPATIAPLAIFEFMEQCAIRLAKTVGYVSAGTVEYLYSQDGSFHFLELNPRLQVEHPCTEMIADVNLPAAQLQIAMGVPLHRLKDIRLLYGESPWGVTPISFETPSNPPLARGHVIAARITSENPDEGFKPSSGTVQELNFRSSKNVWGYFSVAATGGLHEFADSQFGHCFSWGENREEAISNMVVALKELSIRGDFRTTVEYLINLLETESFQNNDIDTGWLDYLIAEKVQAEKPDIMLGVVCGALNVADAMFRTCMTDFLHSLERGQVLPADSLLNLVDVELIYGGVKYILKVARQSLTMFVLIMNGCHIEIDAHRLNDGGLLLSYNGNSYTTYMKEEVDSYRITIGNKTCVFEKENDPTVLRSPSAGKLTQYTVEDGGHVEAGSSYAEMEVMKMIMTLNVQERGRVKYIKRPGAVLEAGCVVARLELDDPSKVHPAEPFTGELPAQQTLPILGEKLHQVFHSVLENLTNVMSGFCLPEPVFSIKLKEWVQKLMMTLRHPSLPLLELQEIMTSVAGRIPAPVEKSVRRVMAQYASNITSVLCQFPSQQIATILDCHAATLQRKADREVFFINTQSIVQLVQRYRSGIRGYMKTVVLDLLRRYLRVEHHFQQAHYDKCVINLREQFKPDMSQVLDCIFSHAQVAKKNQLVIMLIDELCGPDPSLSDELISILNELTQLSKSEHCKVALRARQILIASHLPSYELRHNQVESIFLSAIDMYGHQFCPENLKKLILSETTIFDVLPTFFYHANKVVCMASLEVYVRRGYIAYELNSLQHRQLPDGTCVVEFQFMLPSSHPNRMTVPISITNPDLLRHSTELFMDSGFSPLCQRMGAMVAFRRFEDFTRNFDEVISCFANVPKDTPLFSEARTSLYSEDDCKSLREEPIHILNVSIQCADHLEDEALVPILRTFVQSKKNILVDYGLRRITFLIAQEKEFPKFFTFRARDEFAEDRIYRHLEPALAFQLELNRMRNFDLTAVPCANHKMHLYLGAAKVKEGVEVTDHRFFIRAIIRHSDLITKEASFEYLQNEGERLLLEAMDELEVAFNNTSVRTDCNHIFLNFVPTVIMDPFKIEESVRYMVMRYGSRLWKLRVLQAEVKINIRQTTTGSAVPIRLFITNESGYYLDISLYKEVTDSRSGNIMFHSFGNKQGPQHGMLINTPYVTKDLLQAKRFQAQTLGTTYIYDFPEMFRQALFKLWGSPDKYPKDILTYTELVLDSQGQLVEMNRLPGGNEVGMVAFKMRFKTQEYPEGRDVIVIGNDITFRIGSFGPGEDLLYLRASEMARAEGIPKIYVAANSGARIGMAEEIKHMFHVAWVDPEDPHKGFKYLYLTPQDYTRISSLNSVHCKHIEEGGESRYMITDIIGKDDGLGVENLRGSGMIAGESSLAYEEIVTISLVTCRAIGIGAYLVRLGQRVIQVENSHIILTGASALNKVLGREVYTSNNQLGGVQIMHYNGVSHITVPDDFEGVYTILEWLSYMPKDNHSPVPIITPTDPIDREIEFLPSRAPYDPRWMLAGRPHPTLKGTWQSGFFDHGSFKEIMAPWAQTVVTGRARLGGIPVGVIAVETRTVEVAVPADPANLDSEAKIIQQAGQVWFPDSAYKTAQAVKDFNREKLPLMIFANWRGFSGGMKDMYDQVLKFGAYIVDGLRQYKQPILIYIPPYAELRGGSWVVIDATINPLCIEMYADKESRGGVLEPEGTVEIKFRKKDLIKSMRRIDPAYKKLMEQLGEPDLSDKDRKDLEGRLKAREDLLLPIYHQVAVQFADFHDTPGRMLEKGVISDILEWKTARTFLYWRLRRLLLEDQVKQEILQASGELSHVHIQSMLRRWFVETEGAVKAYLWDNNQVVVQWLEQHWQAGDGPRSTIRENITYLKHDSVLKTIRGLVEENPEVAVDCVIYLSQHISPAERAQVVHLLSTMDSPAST
- test method notes: In vitro ACC inhibition assay (ADP-Glo), hACC2
- Type: biochemical
- condition set: Table 2a, 5 nM ACC2, 20 μM ATP, 20 μM acetyl-CoA
# maps each entry to its IC50

>  <mol>
Cc1c(-n2nccn2)sc2c1c(=O)n(C(C)(C)C(=O)NC(C)C)c(=O)n2C[C@H](OC(C)C)c1cc(F)ccc1OCCO

>  <IC50>
10 to 40 nM

$$$$
>  <mol>
COc1ccc(F)cc1[C@H](Cn1c(=O)n(C(C)(C)C(=O)N2CC=CC2)c(=O)c2c(C)c(-n3nccn3)sc21)OC[C@H](C)O

>  <IC50>
5 to 10 nM

$$$$
>  <mol>
COc1ccc(F)cc1[C@H](Cn1c(=O)n(C(C)(C)C(=O)NO)c(=O)c2c(C)c(-n3nccn3)sc21)OCCCO

>  <IC50>
1 to 5 nM

$$$$

Exam item: Consider the compound shown here: COc1ccc(F)cc1[C@H](Cn1c(=O)n([C@H](C)C(=O)NC2CCC2)c(=O)c2c(C)c(-n3nccn3)sc21)OCCO What is its recorded IC50?
Marked response: 5 to 10 nM

Exam item: Dear colleague, I am looking for the recorded IC50 of the following compound: COc1ccccc1[C@H](Cn1c(=O)n(C(C)(C)C(=O)N2CCCCC2)c(=O)c2c(C)c(-n3nccn3)sc21)OC1CCOCC1
Marked response: 5 to 10 nM

Exam item: Which value of IC50 has been reported for CCNC(=O)C(C)(C)n1c(=O)c2c(C)c(-n3nccn3)sc2n(C[C@H](OCCC#N)c2ccccc2OC)c1=O in the records?
Marked response: 1 to 5 nM
